Quick list: viability, T/C per entry.
- Tested on: 873145-292-R-J1-PDC complex spheroid viability;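 also: luminescence signal used as surrogate for viable cell content; spheroids exposed to compounds for 7 days before viability readout; 100% = DMSO vehicle control viability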
- Assay name: Anticancer human tumor 873145-292-R-J1-PDC patient-derived renal clear cell carcinoma cell line growth inhibition [POLQ]
- Experimental setup: second compound 10 µM; first compound 3.16 µM; stronger effect = lower value
Numbers only; they are read as %.

QUERY: viability, T/C for CC1COCCN1c1cc(C2(O)CC3CCC(C2)O3)c2cnn(-c3ccn[nH]3)c2n1 (stereo unspecified) + Nc1ccc(C#CCN(C(=O)Cc2ncc(C(F)(F)F)cc2C(F)(F)F)c2ccc(F)cc2)nn1 ?
RESULT: 55.3

QUERY: Let us now turn to CC(C)n1c(=O)n(C)c2cnc3cc(F)c(-c4ccc(OCCCN5CCCCC5)nc4)cc3c21 + Nc1ccc(C#CCN(C(=O)Cc2ncc(C(F)(F)F)cc2C(F)(F)F)c2ccc(F)cc2)nn1
RESULT: 104

QUERY: Then CC1COCCN1c1cc(C2(O)CC3CCC(C2)O3)c2cnn(-c3ccn[nH]3)c2n1 (stereo unspecified) + Cc1cccc(N(C)C(=O)C2C(O)CCN2c2nc(C)cc(C(F)(F)F)c2C#N)c1 ?
RESULT: 39.5

QUERY: Another: CCCS(=O)(=O)Nc1ccc(F)c(C(=O)c2c[nH]c3ncc(-c4ccc(Cl)cc4)cc23)c1F + Nc1ccc(C#CCN(C(=O)Cc2ncc(C(F)(F)F)cc2C(F)(F)F)c2ccc(F)cc2)nn1
RESULT: 110

QUERY: Would you kindly repeat that for COc1ccc([C@@H](O)c2cc(-c3ncnc4cc(N5CCOCC5)ccc34)c(F)cc2Cl)nn1 + Nc1ccc(C#CCN(C(=O)Cc2ncc(C(F)(F)F)cc2C(F)(F)F)c2ccc(F)cc2)nn1 ?
RESULT: 60

QUERY: Another molecule to check: CCCS(=O)(=O)Nc1ccc(F)c(C(=O)c2c[nH]c3ncc(-c4ccc(Cl)cc4)cc23)c1F + COC1C(OC(N)=O)C(O)C(Oc2ccc3c(O)c(NC(=O)c4ccc(O)c(CC=C(C)C)c4)c(=O)oc3c2C)OC1(C)C
RESULT: 93.2
